Experiment: Inhibitory activity against recombinant Mycobacterium tuberculosis beta-ketoacyl-Acyl Carrier Protein synthase mtFabH condensing enzyme
MEASUREMENT LABEL: IC50 (µM)
One number for each entry, in µM.

Below, each entry is followed by its recorded IC50 result.
[
  {
    "COMPOUND": "C=C/C(C)=C/[C@@]1(C)SC(=O)C(C)=C1O",
    "IC50, µM": 74.9
  },
  {
    "COMPOUND": "COC(=O)c1ccc(C#CCC2(C)SC(O)=C(C)C2=O)cc1 (centres undefined)",
    "IC50, µM": 74
  },
  {
    "COMPOUND": "CC(=O)c1ccc(C#CCC2(C)SC(O)=C(C)C2=O)cc1O (centres undefined)",
    "IC50, µM": 7
  },
  {
    "COMPOUND": "CC(=O)c1ccc(C#CCC2(C)SC(O)=C(C)C2=O)cc1 (centres undefined)",
    "IC50, µM": 4
  },
  {
    "COMPOUND": "C#CCC1(C)SC(=O)C(C)=C1O (centres undefined)",
    "IC50, µM": 100
  },
  {
    "COMPOUND": "CC1=C(O)C(C)(Cc2ccc(-c3ccc(COCc4ccccc4)cc3)cc2)SC1=O (centres undefined)",
    "IC50, µM": 17
  },
  {
    "COMPOUND": "CC1=C(O)C(C)(CC#Cc2ccc(C#N)cc2)SC1=O (centres undefined)",
    "IC50, µM": 7
  },
  {
    "COMPOUND": "CC1=C(O)C(C)(CC#Cc2ccc([N+](=O)[O-])cc2)SC1=O (centres undefined)",
    "IC50, µM": 34
  }
]

Can you share its IC50? I mean this compound: CC1=C(O)C(C)(CC#Cc2ccccc2C#N)SC1=O (centres undefined)
48
